Assay: TLC precursor-binding assay with lipid II
Set-up: key: “+” indicates binding confirmed; “-” indicates no binding; “~” indicates potential binding with absence of precursor band
Details: peptide 0.5, 1, 2 equiv. (nisin 0.1, 0.5, 1 equiv.) with lipid II in Tris·HCl pH 7.5, 50 mM CaCl2, 1 h; silica TLC
Numbered stars: 1 amine (or outer) side, 2 acyl side, 3 side chain; on linkers, the order of the positions; unused ones are H or OH. Bridge positions count the residues as written; N and C are the ends. Square brackets hold non-standard residues; d marks the D form. Peptide text beside a SMILES is read from it. * marks the point of attachment. β2hAla(R) = C[C@H](CN[*:1])C(=O)[*:2]; Decanoyl = CCCCCCCCCC(=O)*; Dap = NC[C@H](N)C(=O)O; Sar = CNCC(=O)O
measure_name: Lipid II (TLC binding)

compound="CCCCCCCCCC(=O)NC[C@@H](C)C(=O)NCC(=O)N[C@H](CCC(=O)O)C(=O)N[C@@H](Cc1ccc(O)cc1)C(=O)N[C@@H]1C(=O)N[C@H]([C@H](C)CC)C(=O)N[C@@H](CC(=O)O)C(=O)N[C@@H](CC(=O)O)C(=O)N2CCC[C@H]2C(=O)NCC(=O)N[C@@H](CCC(=O)O)C(=O)N[C@@H](CCC(=O)O)C(=O)N(C)CC(=O)O[C@@H]1C [Peptide C2c] (Decanoyl-[β2hAla(R)]G[dE]YT[dI]DDPGEE[Sar]; ester 5-C)" experimental_result=-
compound="CCCCCCCCCC(=O)NC[C@@H](C)C(=O)NCC(=O)N[C@H](CCC(=O)O)C(=O)N[C@@H](Cc1ccc(O)cc1)C(=O)N[C@@H]1C(=O)N[C@H]([C@H](C)CC)C(=O)N[C@@H](CC(=O)O)C(=O)N[C@@H](CC(=O)O)C(=O)N2CCC[C@H]2C(=O)NCC(=O)N[C@@H](CCC(=O)O)C(=O)N[C@@H](CCC(=O)O)C(=O)N(C)CC(=O)O[C@@H]1C [Peptide C2b] (Decanoyl-[β2hAla(R)]G[dE]YT[dI]DDPGEE[Sar]; ester 5-C)" experimental_result=-
compound="CCCCCCCCCC(=O)N[C@@H](CC(=O)O)C(=O)N[C@H]1CNC(=O)[C@@H]2CCCN2C(=O)[C@H](C(C)C)NC(=O)CNC(=O)[C@H](CC(=O)O)NC(=O)CNC(=O)[C@H](CC(=O)O)NC(=O)[C@H](CC(=O)O)NC(=O)[C@H](CCCCN)NC(=O)[C@@H](C(C)C)NC1=O [Peptide M5] (Decanoyl-D[Dap][dV]KDDGDGVP; lactam 2-C)" experimental_result=-
